Property: Ki; scope: individual compounds
# measurement_target: UniProt Q91WP0
# Sequence (Q91WP0 20-685): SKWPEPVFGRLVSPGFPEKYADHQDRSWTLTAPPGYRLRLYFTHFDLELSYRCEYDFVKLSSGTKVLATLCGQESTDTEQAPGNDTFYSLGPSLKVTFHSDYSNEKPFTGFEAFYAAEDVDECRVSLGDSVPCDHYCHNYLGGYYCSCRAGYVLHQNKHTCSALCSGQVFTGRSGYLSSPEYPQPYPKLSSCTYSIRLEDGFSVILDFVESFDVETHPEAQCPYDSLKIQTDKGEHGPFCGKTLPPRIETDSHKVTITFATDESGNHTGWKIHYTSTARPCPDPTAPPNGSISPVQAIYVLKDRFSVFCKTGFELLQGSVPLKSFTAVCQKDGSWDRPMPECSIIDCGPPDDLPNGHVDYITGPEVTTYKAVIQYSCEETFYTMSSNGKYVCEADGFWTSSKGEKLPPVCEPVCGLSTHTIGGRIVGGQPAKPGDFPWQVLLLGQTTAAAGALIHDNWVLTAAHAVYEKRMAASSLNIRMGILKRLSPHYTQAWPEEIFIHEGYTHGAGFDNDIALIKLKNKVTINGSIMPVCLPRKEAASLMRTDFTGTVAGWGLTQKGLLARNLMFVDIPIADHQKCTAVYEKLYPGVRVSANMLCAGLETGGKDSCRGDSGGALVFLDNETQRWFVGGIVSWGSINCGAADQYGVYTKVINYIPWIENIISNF
# measurement_protocol: Enzymatic inhibition of mMASP-2
# Assay type: biochemical
# run_conditions: read-out: mMASP-2 Ki
Counter-ions that a name gives are not always drawn.

Examples with their reported Ki follow.
• C[C@H](NC(=O)[C@H]1C[C@H](c2ccccc2)CN1)C(=O)NCc1ccc(C(N)=O)nc1 [compound 1273] = 10000 to 25000 nM
• Cc1nc(N)ccc1CNC(=O)[C@@H]1CCCN1C(=O)[C@H]1C[C@H](Cc2ccc(Br)cc2)CN1 [compound 1465, Di-trifluoroacetate salt] = 500 to 2500 nM
• Cc1nc(N)ccc1CNC(=O)[C@@H](C)NC(=O)[C@H]1C[C@H](Cc2cccc(C(F)(F)F)c2)C(=O)N1 [compound 1321, Di-trifluoroacetate salt] = > 25000 nM
• C[C@H](NC(=O)[C@@H](CCc1ccccc1)NCCCc1cccc(O)c1)C(=O)NCc1ccc(C(=N)N)cc1 [compound 1312, Di-trifluoroacetate salt] = < 500 nM
• C[C@H](NC(=O)[C@H](N)CCc1ccccc1)C(=O)NCc1cc(C#N)ccc1O [compound 1314, Trifluoroacetate salt] = > 25000 nM

// next entry
Query (compound): C[C@H](NC(=O)[C@H](N)CCc1ccccc1)C(=O)NCc1ccc2c(N)ncnc2c1 [compound 1060, Dihydrochloride] ; field requested: Ki
> 25000 nM
